Biological target: natural Fel d1 (cat (Felis domesticus)) (UniProt P30438)
Assay: SPR, mAb captured, nFel d1 injected, 25 C
// pKd lookup, one value per entry
// pKd is dimensionless: -log10 of concentration (M)

Completed entries (count: 3):
Binder | Experimental Readout | Value
H1M1230N (antibody, V domains shown) VH: EVQLVESGGGLVQPGGSLRLSCTASGFIFSNFWMTWVRQAPGKGLEWVANIKQDGSETYCVDSVKGRFTISRDHAKNSLFLQMNSLRAEDTAVYYCARGAGTIYYYGMDVWGQGTTVIVSS VL: DIQMTQSPSSVSASVGDRLTITCRASQDISSWLTWYQQKPGKAPNLLIYAASGLQSGVPSRFSGSGSGTDFTLTISNLQPEDFATYYCQQANSFPLTFGQGTRLEIK | pKd | 8.47
H2M1242N (antibody, mouse IgG2, V domains shown) VH: EVQLVESGGGLVRPGGSLRLSCAASGFTFTSYAMNWVRQAPGKGLEWVSSISSYSSYIYIADSVKGRFTLSRDNAKNSLYLQMHSLRPEDTAVYFCAREGYSAYSYFDFWGRGTLVTVSS VL: DIQMTQSPSTLSASVGDRVTITCRASQSVISWLAWYQQKPGKAPKLLIHRASSLESGVPSRFSGSGSGTEFTLTISGLQPDDFATYYCQQYNTYFPTFGQGTKVEVK | pKd | 8.50
H2M1233N (antibody, mouse IgG2, V domains shown) VH: QVVLVESGGGVVQPGRSLRLSCAASGFTFSSYGMHWVRQAPGKGLEWVAVIWYDGSNKYYVDSVKGRFTISRDNSNNTIYLQMNSLRAEDTAVYYCARSLIPVAGTDPIFGYWGQGTLVTVSS VL: DIQMTQSPSTLSASVGDRVTITCRASQSVSSWLAWYQQKPGKAPKLLIFKASGLESGVPFRFSGSGSGTEFTLTISSLQPDDFATYYCQQYNTYSPTFGQGTKVEIK | pKd | 8.85

Query H4H2590S (antibody, human IgG4, V domains shown) VH: QVQLVESGGGLVKPGGSLRLSCAASGFTFSDYYMNWIRQAPGKGLEWISYISSGGSTTYYADSVKGRFTISRDNAKNSLYLQMNSLRAEDTAVYYCARDGKYNTSPGDYWGQGTLVTVSS VL: EIVLTQSPDFQSVTPKEKVTITCRASQSIGSSLHWYQQKPDQSPKLLIKYASQSFSGVPSRFSGSGSGTDFTLTINSLEAEDAATYYCLQSSSLRTFGQGTKVDIK yields pKd of 9.18

Query H4H2597B (antibody, human IgG4, V domains shown) VH: EVQLVESGGGLVQPGGSLRLSCAVSGFTFSNYAMNWVRQAPGKGLEWVSVISDSGRSTYYADSVKGRFTISRDNSKNTLYLQMNSLRAEDTAVYFCAKRYNWNLHYFDYWGQGTTVTVSS VL: EIVLTQSPDFQSVTPKEKVTITCRASQSIGGSLHWYQQKPDQSPKLLIKYASQSFSGVPSRFSGSGSGTDFTLTINSLEAEDAATYYCLQSSSLRTFGQGTKVEIKR yields pKd of 9.19
